- target_of_assay: human GPR120 (hGPR120) (Homo sapiens)
- Construct: expressed in transfected cells; doxycycline-inducible expression vector
- test_method_notes: Determination of intracellular Ca2+ concentration (FLIPR), cell line GPR120/Flp-in
- Format: cell-based
- reported_conditions: relative fluorescence intensity vs LA at 10 μM, GPR120/Flp-in cells
Entries and their [Ca^2+]/GPR120/Flp-In 10 μM (ratio vs. LA) values follow.
Form field (numeric): enter value without unit.

Worked set:
# smiles_notation, experimental_value
measured = [
    ("O=C(O)CCCc1ccc(OCCN(c2cccnc2)c2ccccn2)cc1", 0.65),
    ("CN(C)c1ccc(N(CCOc2ccc(CCCC(=O)O)cc2)c2ccccn2)cc1", 0.92),
    ("O=C(O)CCc1ccc(OCCN(c2ccccc2)c2ccccn2)cc1", 0.56),
    ("CCCN(CCOc1ccc(CCC(=O)O)cc1)c1ccccn1", 0.57),
    ("O=C(O)CCCc1ccc(OCCN(c2ccccc2)c2ccccc2)cc1", 0.88),
    ("CCCCCN(CCOc1ccc(CCC(=O)O)cc1)c1ccccn1", 0.45),
]

Let's switch to this compound now.
**Query** Requested read-out: [Ca^2+]/GPR120/Flp-In 10 μM (ratio vs. LA). Entry: CS(=O)(=O)NC(=O)CCc1ccc(NCc2cccc(Oc3ccccc3)c2)cc1
**Result** 0.33

====

- target_of_assay: human GPR40 (hGPR40) (Homo sapiens, UniProt O14842)
- Construct: expressed in transfected cells; doxycycline-inducible expression vector
- Sequence (O14842 whole entry): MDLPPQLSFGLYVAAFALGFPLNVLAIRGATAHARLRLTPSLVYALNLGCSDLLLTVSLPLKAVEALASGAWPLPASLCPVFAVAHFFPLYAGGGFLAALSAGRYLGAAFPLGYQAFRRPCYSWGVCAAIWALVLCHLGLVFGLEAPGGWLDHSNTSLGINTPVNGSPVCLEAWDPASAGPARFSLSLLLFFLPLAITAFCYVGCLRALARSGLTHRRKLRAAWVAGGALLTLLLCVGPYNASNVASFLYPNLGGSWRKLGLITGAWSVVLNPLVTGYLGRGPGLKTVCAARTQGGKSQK
- test_method_notes: Determination of intracellular Ca2+ concentration (FLIPR), cell line TXGPR40
- Assay type: cell-based
- reported_conditions: TXGPR40 cells, maximum fluorescence intensity vs ligand concentration; read-out: [Ca^2+]/GPR40 pEC50 (converted)
Values of EC50 strictly less than 5 µM map to yes, and values of at least 5 µM map to no.

# count of solved cases: 4
# molecule, answer_label
rows = [
    ("c1ccc(Oc2cccc(CNc3ccc(CCc4nnn[nH]4)cc3)c2)cc1 [NCG17]", "yes"),
    ("CS(=O)(=O)NC(=O)CCc1ccc(NCc2cccc(Oc3ccccc3)c2)cc1 [NCG19]", "yes"),
    ("CCCCN(CCOc1ccc(CCCCC(=O)O)cc1)c1ccccn1 [NCG22]", "no"),
    ("CCCCN(CCOc1ccc(CCC(=O)O)cc1)c1ccccn1 [NCP04]", "yes"),
]

Now take the following molecule into account.
**Query** Problem: For the molecule CCCN(CCOc1ccc(CCC(=O)O)cc1)c1ccccn1 [NCP03] , is EC50 under 5 µM?
**Result** no

====

Entries and their EC50 values follow.
- target_of_assay: human GPR120 (hGPR120) (Homo sapiens)
- Construct: expressed in transfected cells; doxycycline-inducible expression vector
- Sequence (Q5NUL3 1-361): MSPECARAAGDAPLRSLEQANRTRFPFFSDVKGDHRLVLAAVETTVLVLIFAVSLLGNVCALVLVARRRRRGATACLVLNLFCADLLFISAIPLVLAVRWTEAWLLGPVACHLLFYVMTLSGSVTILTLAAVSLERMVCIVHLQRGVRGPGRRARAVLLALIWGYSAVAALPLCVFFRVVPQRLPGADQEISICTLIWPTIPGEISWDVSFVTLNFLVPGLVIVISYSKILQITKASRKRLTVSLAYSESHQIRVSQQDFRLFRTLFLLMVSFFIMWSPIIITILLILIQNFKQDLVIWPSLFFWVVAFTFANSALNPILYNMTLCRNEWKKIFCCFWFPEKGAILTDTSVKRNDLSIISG
- test_method_notes: Determination of intracellular Ca2+ concentration (FLIPR), cell line GPR120/Flp-in
- Assay type: cell-based
Param answer (str): number followed by unit.

**Query** Requested read-out: EC50. Entry: Cc1ccnc(N(CCOc2ccc(CCCC(=O)O)cc2)c2ccccc2)c1
**Result** 6.92 µM

**Query** Requested read-out: EC50. Entry: O=C(O)CCCc1ccc(OCCN(c2ccccc2)c2cc(Cl)ccn2)cc1
**Result** 4.57 µM

**Query** Requested read-out: EC50. Entry: O=C(O)CCCCc1ccc(OCCN(c2ccccc2)c2ccccn2)cc1
**Result** 9.12 µM

**Query** Requested read-out: EC50. Entry: O=C(O)CCCc1ccc(OCCN(c2ccccc2)c2ccccc2)cc1
**Result** 4.27 µM

**Query** Requested read-out: EC50. Entry: O=C(O)CCCc1ccc(OCCN(c2ccccc2)c2nc3ccccc3s2)cc1
**Result** 6.92 µM

**Query** Requested read-out: EC50. Entry: CCCCN(CCOc1ccc(CCCC(=O)O)cc1)c1ccccn1
**Result** 12.6 µM

**Query** Requested read-out: EC50. Entry: Cc1cccc(N(CCOc2ccc(CCCC(=O)O)cc2)c2ccccc2)n1
**Result** 6.76 µM

====

Entries and their EC50 values follow.
- target_of_assay: human GPR120 (hGPR120) (Homo sapiens, UniProt Q5NUL3)
- Construct: expressed in transfected cells; doxycycline-inducible expression vector
- test_method_notes: Determination of intracellular Ca2+ concentration (FLIPR), cell line GPR120/Flp-in
- Format: cell-based
- reported_conditions: GPR120/Flp-in cells, maximum fluorescence intensity vs ligand concentration; read-out: [Ca^2+]/GPR120/Flp-In pEC50 (converted)
- Experimental: (1) In this test, The cell lines TXGPR40, TXGPR120 and GPR120/Flp-in were plated onto a collagen-coated black 96-well plate in 2×10^5 cells/well. […] (4) After one hour, the 96-well plate containing the cells and the 96-well plate in which ligands and controls were prepared were set on FLIPR (Fluorometric Imaging Plate Reader) for determination. […] (6) The maximum fluorescence intensity was obtained from the data showing the change in the fluorescence intensity over time observed in each well. […]
Param answer (str): number followed by unit.

Worked set:
# compound, EC50
data = [
    ("COc1cccc(N(CCOc2ccc(CCCC(=O)O)cc2)c2ccccc2)n1 [NCG37]", "3.47 µM"),
    ("CCCCN(CCOc1ccc(CCC(=O)O)cc1)c1ccccn1 [NCP04]", "18.2 µM"),
    ("O=C(O)CCCc1ccc(OCCN(c2cccnc2)c2ccccn2)cc1 [NCG45]", "10 µM"),
    ("c1ccc(Oc2cccc(CNc3ccc(CCc4nnn[nH]4)cc3)c2)cc1 [NCG17]", "5.89 µM"),
    ("O=C(O)CCCc1ccc(OCCN(c2ccccc2)c2nccs2)cc1 [NCG46]", "1.66 µM"),
    ("CCCCCN(CCOc1ccc(CCC(=O)O)cc1)c1ccccn1 [NCP05]", "11.5 µM"),
    ("O=C(O)CCc1ccc(OCCCN(c2ccccc2)c2ccccn2)cc1 [NCG28]", "6.76 µM"),
    ("O=C(O)CCCc1ccc(OCCN(c2ccccc2)c2ccccn2)cc1 [NCG21]", "1.26 µM"),
]

**Query** Requested read-out: EC50. Entry: O=C(O)CCc1ccc(OCCN(c2ccccc2)c2ccccn2)cc1 [NCP14]
**Result** 15.5 µM

**Query** Requested read-out: EC50. Entry: CN(C)c1ccc(N(CCOc2ccc(CCCC(=O)O)cc2)c2ccccn2)cc1 [NCG54]
**Result** 2.4 µM

**Query** Requested read-out: EC50. Entry: CCN(CCOc1ccc(CCC(=O)O)cc1)c1ccccn1 [NCP02]
**Result** 15.5 µM

**Query** Requested read-out: EC50. Entry: O=C(O)CCCc1ccc(OCCN(c2ccccc2)c2cccnc2)cc1 [NCG30]
**Result** 3.72 µM

**Query** Requested read-out: EC50. Entry: O=C(O)CCCc1ccc(OCCN(c2ccccc2)c2ncccn2)cc1 [NCG44]
**Result** 3.55 µM

**Query** Requested read-out: EC50. Entry: CCCCN(CCOc1ccc(CCCCC(=O)O)cc1)c1ccccn1 [NCG22]
**Result** 19.1 µM

**Query** Requested read-out: EC50. Entry: CS(=O)(=O)NC(=O)CCc1ccc(NCc2cccc(Oc3ccccc3)c2)cc1 [NCG19]
**Result** 17 µM

**Query** Requested read-out: EC50. Entry: O=C(O)CCc1ccc(NCc2cccc3ncccc23)cc1 [NCG14]
**Result** 14.8 µM

**Query** Requested read-out: EC50. Entry: CCCN(CCOc1ccc(CCC(=O)O)cc1)c1ccccn1 [NCP03]
**Result** 17.8 µM

====

- target_of_assay: human GPR120 (hGPR120) (Homo sapiens, UniProt Q5NUL3)
- Construct: expressed in transfected cells; doxycycline-inducible expression vector
- test_method_notes: Determination of intracellular Ca2+ concentration (FLIPR), cell line TXGPR120
- Assay type: cell-based
Values of EC50 strictly less than 20 µM map to Fulfilled, and values of at least 20 µM map to Not fulfilled.

# compound, answer_label
measured = [
    ("O=C(O)CCCc1ccc(OCCN(c2ccccc2)c2nc3ccccc3s2)cc1 [NCG31]", "Fulfilled"),
    ("Cc1ccnc(N(CCOc2ccc(CCCC(=O)O)cc2)c2ccccc2)c1 [NCG34]", "Not fulfilled"),
    ("O=C(O)CCCc1ccc(OCCN(c2ccccc2)c2cc(Cl)ccn2)cc1 [NCG35]", "Fulfilled"),
    ("Cc1cccc(N(CCOc2ccc(CCCC(=O)O)cc2)c2ccccc2)n1 [NCG38]", "Not fulfilled"),
]

Now take the following compound into account.
**Query** Problem: For the compound O=C(O)CCCc1ccc(OCCN(c2ccccc2)c2ccccc2)cc1 [NCG29] , is EC50 under 20 µM?
**Result** Fulfilled

The values you see were collected from patent US8318781B2.
